assay: ACEA_ER_AUC_viability: ACEA Biosciences xCELLigence Real-Time Cell Analysis on Estrogen Receptor Agonism for Viability (AID 2283782);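 also: continuous compound exposure with impedance area under curve over 80 h; hit means loss of impedance signal meaning reduced cell growth or viability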
Inconclusive results are not listed. The source made the active and inactive calls. The calls were made as follows: active = hit-call score of the fitted dose curve at least 0.9, where 1 is the maximum; inconclusive = response in the unintended direction; inactive = score below 0.9.
Returns: one label drawn from True for active, False for inactive

What classification did CC(CO)(CO)[N+](=O)[O-] end up with in this test?
False

What classification did C=COCC1CCC(COC=C)CC1 (stereo unspecified) end up with in this test?
False

What classification did CC(=O)c1ccc(O)cc1 end up with in this test?
False

What classification did CCCCCCCCCCCCOC(C)=O end up with in this test?
False

What classification did CC(C)COC(=O)c1ccccc1 end up with in this test?
False

What classification did CN(C)C end up with in this test?
False

What classification did CC1(C)CC(N)CC(C)(CN)C1 (stereo unspecified) end up with in this test?
False

What classification did C[C@H](CCC(=O)O)[C@H]1CC[C@H]2[C@@H]3CC[C@@H]4C[C@H](O)CC[C@]4(C)[C@H]3CC[C@]12C end up with in this test?
True

What classification did CCC(C)(CCCC(C)C)OC(C)=O (stereo unspecified) end up with in this test?
False

What classification did O=S(=O)(O)c1cc(O)c(O)c(S(=O)(=O)O)c1 end up with in this test?
False

What classification did CCCCOCCOC(=O)c1ccccc1C(=O)OCCOCCCC end up with in this test?
False

What classification did CC(C)(O)C(=O)c1ccc(OCCO)cc1 end up with in this test?
False

What classification did CC/C=C\CCOC(=O)C(C)C end up with in this test?
False

What classification did Brc1cc(Br)cc(Br)c1 end up with in this test?
False

What classification did C1=COCCC1 end up with in this test?
False

What classification did CCOC(=O)CC1(C)OCC(C)O1 (stereo unspecified) end up with in this test?
False

What classification did CC(=O)c1cccnc1 end up with in this test?
False

What classification did FC(F)(F)c1ccc(Cl)c(Cl)c1 end up with in this test?
False

What classification did NC(=O)NC(N)=O end up with in this test?
False

What classification did O=S1(=O)CC(Cl)(Cl)C(Cl)(Cl)C1 end up with in this test?
True

What classification did CC(=O)CC(C)(C)C1CCCCC1 end up with in this test?
False

What classification did NC(N)=NC(N)=NCCc1ccccc1 end up with in this test?
False

What classification did CC/C=C\CCCCO end up with in this test?
True

What classification did C=CCCCCCCCCC(=O)OCC end up with in this test?
False

What classification did CC(C)OB(OC(C)C)OC(C)C end up with in this test?
False

What classification did N[C@@H](CCC(=O)O)C(=O)O end up with in this test?
False

What classification did CC(C)=CCCC(C)=CC(=O)O end up with in this test?
False

What classification did Nc1ccn([C@H]2CC[C@@H](CO)O2)c(=O)n1 end up with in this test?
False

What classification did NS(=O)(=O)c1cc(C(=O)O)c(NCc2ccco2)cc1Cl end up with in this test?
False

What classification did Cc1cc(N)n(-c2ccccc2)n1 end up with in this test?
False

What classification did O=C(O)c1cccc(Cl)n1 end up with in this test?
False

Values were extracted from PubChem BioAssay (EPA / NIEHS).
